The values you see were collected from PubChem BioAssay (NCI).

tested on: RXF 393 renal; assay: NCI-60 one-dose screen, 48 h; conditions: 10 µM unless noted
The panel holds about 83,000 compounds, 20% with a hit somewhere; the sample as a whole holds those more often. Active and inactive are the calls of the source. Rule for the calls: active = growth percent below 10; inactive = the rest.
# output must be one of active, inactive

[ask] Hi team, can someone confirm the assay call for COc1ccc(NC(=O)Nc2ccc(-c3ccc(OC)c(OC)c3)nc2C)cc1 ?
[reply] inactive

[ask] So what was the verdict on CC(C)(c1ccc(OCC(O)CNCc2ccco2)cc1)c1ccc(OCC(O)CNCc2ccco2)cc1 (stereo not given) in this test?
[reply] inactive

[ask] Fill in: this test's call for CC1=C2C(=C[C@@](C)(CO)[C@@H]2OC(=O)N(C)CCN(C)C(=O)OC(C)(C)C)C(=O)[C@](C)(O)C12CC2 is ___
[reply] active

Others:
[ask] Short answer needed: outcome of this test for Cn1cnc([N+](=O)[O-])c1N1c2ccncc2Sc2ccncc21 ?
[reply] inactive

[ask] Look up the recorded call for S=C=NP1(N=C=S)=NP(N=C=S)(N=C=S)=NP(N=C=S)(N=C=S)=NP(N=C=S)(N=C=S)=N1 (stereo not given) in this test.
[reply] inactive

[ask] Hi, sorry to bother you, what did the test record for Cc1ccc(=O)n(-c2ccc(Br)cc2F)c1 ?
[reply] inactive

[ask] Give the logged outcome of this assay for the following compound: CCC(N)(C(=O)O)c1ccc(F)cc1 (stereo not given)
[reply] inactive

[ask] Which result was noted for this compound in the test: CO[C@H]1/C=C/C=C/C=C/C[C@H](OC(=O)[C@@H](C)NC(=O)C2CCCCC2)[C@H](C)[C@@H](O)/C(C)=C\CCC2=CC(=O)C=C(NC(=O)C1)C2=O
[reply] active

[ask] Per the records of this test, what outcome belongs to Cc1cn(-c2nc3c(c(NCc4ccccc4)n2)COCC3)c2cccc(C(N)=O)c12 ?
[reply] inactive

[ask] Hi, sorry to bother you, what did the test record for O=C(NCCNc1nccc(-c2c(-c3cccc(O)c3)nc3sccn23)n1)c1cccc(C(F)(F)F)c1 ?
[reply] inactive
